Target: Ubiquitin carboxyl-terminal hydrolase 2 (Homo sapiens) (UniProt O75604)
Sequence (O75604 whole entry, looked up): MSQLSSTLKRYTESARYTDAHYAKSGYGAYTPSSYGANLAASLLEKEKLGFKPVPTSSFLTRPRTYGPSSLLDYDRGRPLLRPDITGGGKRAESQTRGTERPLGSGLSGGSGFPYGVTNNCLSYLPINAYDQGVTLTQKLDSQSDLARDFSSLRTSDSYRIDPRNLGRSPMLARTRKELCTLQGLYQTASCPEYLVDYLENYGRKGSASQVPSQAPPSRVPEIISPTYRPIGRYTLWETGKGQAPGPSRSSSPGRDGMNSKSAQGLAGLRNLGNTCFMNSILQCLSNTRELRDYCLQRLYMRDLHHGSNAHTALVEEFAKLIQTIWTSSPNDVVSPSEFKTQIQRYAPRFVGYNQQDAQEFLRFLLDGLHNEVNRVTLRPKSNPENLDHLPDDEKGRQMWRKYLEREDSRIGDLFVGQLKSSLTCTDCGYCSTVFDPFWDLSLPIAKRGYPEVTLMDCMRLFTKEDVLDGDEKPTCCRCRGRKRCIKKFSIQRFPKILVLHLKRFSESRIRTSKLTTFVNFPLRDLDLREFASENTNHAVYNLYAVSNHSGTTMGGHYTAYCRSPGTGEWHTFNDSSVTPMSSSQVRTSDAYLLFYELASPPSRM
Assay: Ub-rhodamine 110 based assay for inhibitors Ubiquitin-specific Protease USP2a; note: nearly all actives have a fitted effect of over 50% in size
Settings: USP2a Ub-rhodamine110 cleavage, fluorescence; series mostly up to 38.3 µM
Inconclusive results are not listed. Active and inactive are the calls of the source. Calls come from the whole dose curve; as a rule, active = well fitted inhibition curve with a large enough effect; inconclusive = small, poorly fitted or top-dose-only effect, or effect the other way; inactive = flat fitted curve, though single readings scatter.
Outcome codes: active, inactive

{"Compound": "CCn1c2ccccc2c2nc3ccccc3nc21", "Class assignment": "inactive"}
{"Compound": "CCCNC(=O)CS(=O)Cc1nc(-c2ccccc2C)oc1C (stereo not drawn)", "Class assignment": "inactive"}
{"Compound": "O=C(O)C1CCN1C1CCCCC1 (stereo not drawn)", "Class assignment": "inactive"}
{"Compound": "Cc1ccc(NC(=O)CN2C(=O)N/C(=C/c3ccco3)C2=O)cc1", "Class assignment": "active"}
{"Compound": "COc1cccc(OC)c1-c1nn2c(-c3cc(-c4ccccc4)n[nH]3)nnc2s1", "Class assignment": "active"}
{"Compound": "CCCOC(=O)CCCCC1SCC(NC(=O)OC)C1NC(=O)OC (stereo not drawn)", "Class assignment": "inactive"}
{"Compound": "O=C(N/N=C1\\CC(c2ccccc2)Oc2ccccc21)c1ccc(O)cc1 (stereo not drawn)", "Class assignment": "inactive"}
{"Compound": "CCN(CC)S(=O)(=O)c1ccc(Cl)c(NC(=O)COC(=O)c2c(C)noc2C)c1", "Class assignment": "inactive"}
{"Compound": "CC[n+]1c(/C=C/N(C)c2ccccc2)n(-c2ccccc2)c2ccc(-c3nc4ccccc4s3)cc21", "Class assignment": "inactive"}
{"Compound": "COc1cc(C(O)P(=O)(OC(C)C)c2ccc(N(C)C)cc2)cc(OC)c1OC (stereo not drawn)", "Class assignment": "inactive"}
{"Compound": "C[C@H](CO)N1C[C@H](C)[C@@H](CN(C)S(=O)(=O)c2cccs2)Oc2c(NC(=O)Nc3ccc4c(c3)OCO4)cccc2C1=O", "Class assignment": "inactive"}
{"Compound": "CC(=O)Nc1cc[n+](CC(=O)c2ccc(Cl)cc2)cc1", "Class assignment": "inactive"}
{"Compound": "O=C(O)c1cc(N2N=C(C(F)(F)F)/C(=C/C=C/c3ccco3)C2=O)ccc1Cl", "Class assignment": "active"}
{"Compound": "Cc1cc(=O)n2[nH]c(-c3sccc3-n3c(C)ccc3C)cc2n1", "Class assignment": "active"}
{"Compound": "CC(C)c1ccc(NC(=O)C(c2ccc3c(c2)OCO3)N2CCCCC2)cc1 (stereo not drawn)", "Class assignment": "inactive"}
{"Compound": "NC(=O)c1ncc(C(F)(F)F)cc1Oc1cccc(F)c1", "Class assignment": "inactive"}
{"Compound": "CCC(C)NC(=O)CSC1=Nc2ccccc2C2=NC(c3ccccc3)C(=O)N12 (stereo not drawn)", "Class assignment": "inactive"}
{"Compound": "Cc1ccc(NC(=O)CSc2nnc(COc3ccc(C#N)cc3)n2-c2ccccc2)cc1C", "Class assignment": "inactive"}
{"Compound": "Cc1ccc(C(C)C)c(OCc2nn(CC(=O)c3ccc(OC(F)F)cc3)c3[n+]2CCCCC3)c1", "Class assignment": "inactive"}
{"Compound": "CCCn1c(C)cc(C)c(C#N)c1=O", "Class assignment": "inactive"}
{"Compound": "O=C(C1CCCN(S(=O)(=O)c2cccc3cccnc23)C1)N1CCN(c2ccccc2F)CC1 (stereo not drawn)", "Class assignment": "inactive"}
{"Compound": "CCn1nnnc1SCC(=O)Nc1cccc(C)n1", "Class assignment": "inactive"}
{"Compound": "CC1=CC(C)(C)N(C(=O)c2ccccc2)c2ccccc21", "Class assignment": "inactive"}
{"Compound": "CNc1cccccc1=S", "Class assignment": "active"}
{"Compound": "COc1ccccc1C(=O)N1CCN=C1SC", "Class assignment": "inactive"}
{"Compound": "NC(=O)c1c(NC(=O)CSc2nnc(-c3ccco3)n2-c2ccccc2)sc2c1CCC2", "Class assignment": "active"}
{"Compound": "CCOC(=O)c1[nH]c2ccc(OC)cc2c1NC(=O)CCN1CCC(C)CC1", "Class assignment": "inactive"}
{"Compound": "CCOc1ccccc1C(=O)NC1CC2CCCC(C1)N2C1CC1 (stereo not drawn)", "Class assignment": "inactive"}
{"Compound": "COC(=O)c1c(N2C(=O)CCC2=O)sc2c1CCCC2", "Class assignment": "inactive"}
{"Compound": "O=C(CCc1nc(-c2ccccc2F)no1)NC1CCCCCC1", "Class assignment": "inactive"}
{"Compound": "Cc1ccc(CSC2=Nc3ccccc3C3=NC(CC(=O)NCc4ccco4)C(=O)N23)cc1 (stereo not drawn)", "Class assignment": "active"}
{"Compound": "O=C(CSc1ncn[nH]1)Nc1ccc(Br)cc1F", "Class assignment": "inactive"}
{"Compound": "COc1ccc2cc(CN(C(=O)Nc3ccccc3)C3CCCC3)c(=O)[nH]c2c1", "Class assignment": "inactive"}
